target: BRD4 BD1 (Homo sapiens, UniProt O60885); test: AlphaScreen binding assay, BRD4 Bromodomain 1
pIC50: −log10 of the molar value.
assay readout: pIC50

# count of solved cases: 6
CNS(=O)(=O)c1cccc(-c2ccc3c(c2)N(C(=O)C2CCC2)C[C@H](C)N3C(C)=O)c1 [Example I-1105]: 5.00 to 6.00
COc1ccc(-c2ccc3c(c2)N(C(=O)C2CC2)C[C@H](C)N3C(C)=O)cc1NS(C)(=O)=O [Example I-1139]: 5.00 to 6.00
CC(C)OC(=O)N1c2ccc(-c3ccc(S(C)(=O)=O)cc3)cc2N(C(=O)c2ccco2)C[C@@H]1C [Example I-372]: < 5.00
CC(=O)N1c2ccc(-c3ccc(S(=O)(=O)n4cccn4)cc3)cc2N(C(=O)OC(C)C)C[C@@H]1C [Example I-1118]: 5.00 to 6.00
CC(=O)N1c2ccccc2N(Cc2ccc(-c3ccccc3)cc2)C[C@@H]1C [Example I-916]: < 5.00
COc1ccc(C#N)cc1OC(=O)N1C[C@H](C)N(C(C)=O)c2ccc(-c3cnn(C4CC4)c3)cc21 [Example I-526]: 6.00 to 7.00

Note: attention shifts to another entry.
Ask | Form field: reported pIC50 of CC(=O)N1c2ccc(-c3cnc(N)nc3)cc2N(C(=O)c2ccco2)C[C@@H]1C [Example I-296]
Reply | 5.00 to 6.00

====

target: BRD4 BD2 (Homo sapiens); assay: AlphaScreen binding assay, BRD4 Bromodomain 2
assay readout: IC50

CC(=O)N1c2ccccc2N(C(=O)Cc2ccccc2)C[C@@H]1C: > 500 nM

Ask | # lookup: IC50 of CCCS(=O)(=O)c1ccc(-c2ccc3c(c2)N(C(=O)OC2CCOCC2)C[C@H](C)N3C(C)=O)cc1
Reply | 50 to 500 nM

Ask | Moving on to the next compound: CC(=O)N1c2ccc(-c3cccc(NS(C)(=O)=O)c3)cc2N(C(=O)OC2CCCCC2)C[C@@H]1C
Reply | 50 to 500 nM

Ask | # iterate: CC(=O)N1c2ccc(-c3cnn(C4CCCS(=O)(=O)C4)c3)cc2N(C(=O)OC2CCOCC2)C[C@@H]1C (stereo partly shown)
Reply | 50 to 500 nM

====

Target: BRD4 BD1 (Homo sapiens)
Assay: AlphaScreen binding assay, BRD4 Bromodomain 1
Method: The binding of Example compounds to BRD4 Bromodomain 1 and BRD4 Bromodomain 2 was assessed using 384-well AlphaScreen assay technology. His-epitope tagged BRD4 BD144-168 and BRD4 BD2333-460 were cloned, expressed, and purified to homogeneity. BRD4 BD1 and BRD4 BD2 binding and inhibition was assessed by monitoring the engagement of biotinylated Histone H4 (1-21) K5/8/12/16 tetra-acetylated peptide with the targets using the AlphaScreen technology (PerkinElmer). […]
pIC50: −log10 of the molar value.
assay readout: pIC50

Some entries whose results are on file:
CC(=O)N1c2ccc(-c3ccc(S(=O)(=O)CC(C)C)cc3)cc2N(C(=O)OC2CCOCC2)C[C@@H]1C: 6.00 to 7.00
CC(=O)N1c2ccc(-c3cnn(CC(C)(C)F)c3)cc2N(C(=O)C2CC2)C[C@@H]1C: 6.00 to 7.00
CC(C)OC(=O)N1C[C@H](C)N(C(=O)C2CC2)c2ccc(-c3ccc(C(=O)N4CCN(S(C)(=O)=O)CC4)cc3)cc21: 6.00 to 7.00
CC(=O)N1c2ccc(-c3cccc(C(=O)N4CCOCC4)c3)cc2N(C(=O)c2ccco2)C[C@@H]1C: 6.00 to 7.00
CC(=O)N1c2ccc(-c3ccc(C(=O)N4CCC[C@@H]4CN)cc3)cc2N(C(=O)OC(C)C)C[C@@H]1C: 6.00 to 7.00
CC(=O)N1c2ccc(-c3nnc(N)s3)cc2N(C(=O)c2ccco2)C[C@@H]1C: 5.00 to 6.00

Now consider a different compound.
Ask | For the compound shown here, CC(=O)N1c2ccc(-c3ccc4c(c3)CCN4S(C)(=O)=O)cc2N(C(=O)Oc2cccnc2)C[C@@H]1C , give the reported pIC50.
Reply | 5.00 to 6.00

Values compiled from patent US10703764B2.
